Test: Solubility of gentisate Form 2 of Compound 1 in water, SGF, FaSSIF and FeSSIF after 4 hours at 37 °C (HPLC)
Assay type: physicochemical
Settings: water, pH 1.7, read-out: Solubility (calculated as the amount of free base of Compound 1)
measure name: solubility at 4 h
Answer shape: numeric part, then the unit.

[Q] Find the recorded solubility at 4 h belonging to O=P(O)(O)[C@@](CO)(COCc1nn[nH]n1)OC[C@H]1O[C@@H](n2ncc3c(NC4CCCC4)nc(Cl)nc32)[C@H](O)[C@@H]1O [Form 2 of a gentisate form of Compound 1] and report it.
[A] 26.2 mg/mL

====

Experiment: Solubility of gentisate Form 2 of Compound 1 in water, SGF, FaSSIF and FeSSIF after 4 hours at 37 °C (HPLC)
Format: physicochemical
Details: fasted-state simulated intestinal fluid (FaSSIF), pH 2.5, read-out: Solubility (calculated as the amount of free base of Compound 1)
Description: The solubility of a polymorphic form of a gentisate form of Compound 1 was measured in water, simulated gastric fluid (SGF), fasted-state simulated intestinal fluid (FaSSIF), and fed-state simulated intestinal fluid (FeSSIF) after 4 hours and at 37 °C as follows. The SGF media was prepared by weighing 49.5 mg of NaCl and 25.4 mg of Triton X-100 into a 100-mL volumetric flask. […] The solution was then diluted to volume with purified water, mixed well and the pH value was measured to be 1.83. […]
measure name: solubility at 4 h

[Q] For the compound shown here, O=P(O)(O)[C@@](CO)(COCc1nn[nH]n1)OC[C@H]1O[C@@H](n2ncc3c(NC4CCCC4)nc(Cl)nc32)[C@H](O)[C@@H]1O [Form 2 of a gentisate form of Compound 1] , give the reported solubility at 4 h.
[A] > 10.2 mg/mL
